Where these numbers come from: the supplement of paper PMC10065799

- System: c-Abl (mouse)
- experiment description: phosphorylation enrichment, bacterial display (enrichment ratio); higher = better substrate or ligand; peptides without Tyr show the background;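 further: 11-residue human phosphosite peptides and single-mutation variants displayed on the E. coli surface, counted by deep sequencing, each peptide's frequency after selection divided by its frequency in the unselected input library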;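 further: frequency after pTyr selection over input frequency; kinase dosed for 20-30% of maximal phosphorylation in three min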
recorded metric: phosphorylation enrichment
Answers are plain numbers.

Look up phosphorylation enrichment for the entries below, preserving their order.
1. CPTIHYNFMCN [TP53_Y234_T230P_YF]
2. GLPQTYCVSGP [DYSF_Y1684]
3. RREWYYEVIIV [BACE1_Y260]
4. RYFTTYDTNGR [CLCA1_Y665]
5. NVADHYRVYKP [ATP6V0D2_Y271_G272R]
6. PPSGEYFGHCG [TRIP6_Y275_Q278H]
7. DSMQSYDLDFP [UNC13B_Y243_YF]

(A)
0.757
0.583
0.771
0.296
0.703
0.904
0.623

###

Assign phosphorylation enrichment to each entry below.
- measured on: Jak2 (UniProt O60674)
- Sequence (O60674 whole entry, looked up): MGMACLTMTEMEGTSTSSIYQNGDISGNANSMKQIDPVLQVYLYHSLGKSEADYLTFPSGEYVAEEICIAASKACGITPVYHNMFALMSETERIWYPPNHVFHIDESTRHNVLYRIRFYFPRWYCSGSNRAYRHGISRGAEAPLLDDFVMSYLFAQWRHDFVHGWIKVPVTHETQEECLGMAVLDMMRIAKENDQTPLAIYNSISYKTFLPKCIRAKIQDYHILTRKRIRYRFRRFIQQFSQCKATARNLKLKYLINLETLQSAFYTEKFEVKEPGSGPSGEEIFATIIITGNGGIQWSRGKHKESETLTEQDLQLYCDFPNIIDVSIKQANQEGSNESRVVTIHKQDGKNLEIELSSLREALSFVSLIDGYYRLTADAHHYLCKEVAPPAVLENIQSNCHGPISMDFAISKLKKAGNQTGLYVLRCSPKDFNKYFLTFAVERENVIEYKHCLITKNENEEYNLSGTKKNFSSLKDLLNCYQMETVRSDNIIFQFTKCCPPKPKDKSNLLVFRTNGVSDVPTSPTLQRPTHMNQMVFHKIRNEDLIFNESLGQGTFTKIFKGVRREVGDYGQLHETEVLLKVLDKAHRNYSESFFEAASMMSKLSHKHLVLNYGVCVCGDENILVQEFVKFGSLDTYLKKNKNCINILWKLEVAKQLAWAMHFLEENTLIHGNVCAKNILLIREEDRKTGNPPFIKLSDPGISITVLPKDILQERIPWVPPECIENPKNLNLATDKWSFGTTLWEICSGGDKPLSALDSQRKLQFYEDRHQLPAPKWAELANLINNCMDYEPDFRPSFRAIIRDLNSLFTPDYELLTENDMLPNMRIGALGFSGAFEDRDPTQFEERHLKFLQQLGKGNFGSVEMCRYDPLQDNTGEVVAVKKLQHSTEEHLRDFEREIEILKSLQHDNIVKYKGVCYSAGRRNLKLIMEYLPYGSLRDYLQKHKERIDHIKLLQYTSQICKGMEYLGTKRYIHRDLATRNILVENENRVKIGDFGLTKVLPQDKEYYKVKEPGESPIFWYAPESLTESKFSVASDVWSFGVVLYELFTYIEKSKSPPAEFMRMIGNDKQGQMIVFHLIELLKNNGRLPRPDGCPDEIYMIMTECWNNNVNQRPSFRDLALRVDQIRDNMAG
- experiment description: phosphorylation enrichment, bacterial display (enrichment ratio); higher = better substrate or ligand; peptides without Tyr show the background
One number for each entry.

In the examples that follow, each entry is paired with its recorded phosphorylation enrichment.
residue string	phosphorylation enrichment
KAEELYIGVTV [EFHC2_Y509]	0.966
ANSPVYVPTTR [GATA6_Y188_S184N]	0.821
NYRPGYNNFYN [USH2A_Y467]	0.651
CHSDDYVHISI [TSC1_Y406_L411I]	1.07
VRFMANTDETF [F8_Y450_Y450N]	0.849

Return reported phosphorylation enrichment values for all items listed beneath this line.
1. ESKKHYGFSLF [ANXA3_Y295_F291S_YF]
2. HEEDNYIELIP [NWD2_Y566]

(A)
1. 0.93
2. 2.21

###

- measured on: Fes (UniProt P07332)
- Sequence (P07332 whole entry, looked up): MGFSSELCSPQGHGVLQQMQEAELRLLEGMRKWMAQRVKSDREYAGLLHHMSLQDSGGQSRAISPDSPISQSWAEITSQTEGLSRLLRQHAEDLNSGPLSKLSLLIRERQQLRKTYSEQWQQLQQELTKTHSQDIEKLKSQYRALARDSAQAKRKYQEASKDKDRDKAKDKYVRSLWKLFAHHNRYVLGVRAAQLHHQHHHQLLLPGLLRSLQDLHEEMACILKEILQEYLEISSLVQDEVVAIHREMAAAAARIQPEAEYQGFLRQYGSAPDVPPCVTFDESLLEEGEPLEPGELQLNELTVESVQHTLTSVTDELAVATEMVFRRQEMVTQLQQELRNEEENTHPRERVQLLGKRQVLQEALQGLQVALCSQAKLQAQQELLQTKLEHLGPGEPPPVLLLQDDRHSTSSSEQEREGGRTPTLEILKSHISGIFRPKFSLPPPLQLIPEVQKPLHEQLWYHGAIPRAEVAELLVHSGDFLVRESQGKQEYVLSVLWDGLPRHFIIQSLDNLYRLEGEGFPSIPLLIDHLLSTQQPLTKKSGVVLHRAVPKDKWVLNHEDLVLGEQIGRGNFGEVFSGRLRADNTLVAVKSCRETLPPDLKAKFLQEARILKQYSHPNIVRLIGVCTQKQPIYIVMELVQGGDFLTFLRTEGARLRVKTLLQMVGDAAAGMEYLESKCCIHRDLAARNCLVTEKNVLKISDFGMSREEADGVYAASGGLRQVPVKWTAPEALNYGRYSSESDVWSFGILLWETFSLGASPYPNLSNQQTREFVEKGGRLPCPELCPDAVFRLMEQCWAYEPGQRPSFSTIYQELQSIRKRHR
- experiment description: phosphorylation enrichment, bacterial display (enrichment ratio); higher = better substrate or ligand; peptides without Tyr show the background
recorded metric: phosphorylation enrichment
One number for each entry.

A selection of reference data follows.
residue string	phosphorylation enrichment
SQGRQYQELPR [KCNH2_Y1009_R1005Q]	0.568
SVTCAYSPALN [TP53_Y126_T125A]	1.2
NTGDYCDLYGG [PTPN11_Y63_Y63C]	1.16
TLARLYHPDST [LRIG1_Y1029]	0.743

Consider the following items and state reported phosphorylation enrichment for each.
1. FHLLPYTVRAM [PARS2_Y93_YF]
2. QIGRKYKKVRF [F8_Y442_R437Q]

(A)
0.971
1.04

###

Provide the recorded phosphorylation enrichment for the entries that follow.
- measured on: MERTK (UniProt Q12866)
- Sequence (Q12866 whole entry, looked up): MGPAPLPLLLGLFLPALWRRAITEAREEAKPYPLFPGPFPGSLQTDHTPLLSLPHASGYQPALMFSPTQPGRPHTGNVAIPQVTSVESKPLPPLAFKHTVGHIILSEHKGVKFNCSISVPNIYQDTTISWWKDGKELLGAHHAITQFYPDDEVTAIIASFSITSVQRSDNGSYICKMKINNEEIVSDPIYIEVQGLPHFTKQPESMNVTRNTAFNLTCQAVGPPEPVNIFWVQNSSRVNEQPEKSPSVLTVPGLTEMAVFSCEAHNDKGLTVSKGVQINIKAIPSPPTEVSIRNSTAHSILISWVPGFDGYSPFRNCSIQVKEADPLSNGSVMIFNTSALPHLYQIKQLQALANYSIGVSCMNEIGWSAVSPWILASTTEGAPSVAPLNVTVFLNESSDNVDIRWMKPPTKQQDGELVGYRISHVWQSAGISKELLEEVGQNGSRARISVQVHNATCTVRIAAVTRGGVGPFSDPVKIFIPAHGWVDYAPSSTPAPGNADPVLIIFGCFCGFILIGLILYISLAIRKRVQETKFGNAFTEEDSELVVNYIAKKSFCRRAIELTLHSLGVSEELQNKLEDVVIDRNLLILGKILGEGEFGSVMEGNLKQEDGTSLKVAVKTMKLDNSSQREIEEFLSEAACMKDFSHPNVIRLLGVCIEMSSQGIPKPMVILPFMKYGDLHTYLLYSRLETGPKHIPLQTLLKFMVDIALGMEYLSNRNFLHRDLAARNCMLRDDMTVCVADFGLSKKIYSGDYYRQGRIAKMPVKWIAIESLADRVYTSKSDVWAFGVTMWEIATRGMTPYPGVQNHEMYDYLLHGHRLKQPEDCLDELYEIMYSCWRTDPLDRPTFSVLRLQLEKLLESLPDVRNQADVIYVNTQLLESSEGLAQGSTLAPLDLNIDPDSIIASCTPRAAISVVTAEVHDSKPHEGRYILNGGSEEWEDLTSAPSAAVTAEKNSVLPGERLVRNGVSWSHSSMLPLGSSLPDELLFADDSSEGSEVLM
- experiment description: phosphorylation enrichment, bacterial display (enrichment ratio); higher = better substrate or ligand; peptides without Tyr show the background
Numbers only.

Completed entries (count: 3):
residue string	phosphorylation enrichment
LIHLHYIRKDY [BBS4_Y43]	0.377
HGVSSYDTVIS [LDLR_Y465]	0.811
FHLLPYTVRAM [PARS2_Y93_YF]	0.438

Hello, I would appreciate it if you could give phosphorylation enrichment for each entry below.
1. RLEPVYFVAPA [LAMC2_Y250_D247E]
2. KELSSYKHLTL [SLIT2_Y776_N775S]

(A)
7.77
0.404

Items follow; give phosphorylation enrichment for each.
1. LASLIYNFVLF [AQP6_Y231]
2. DKNSSYFADWL [TUBB8_Y340]
3. PTFEHYANSTQ [SLC12A3_Y70_YF]

(A)
1: 7.85; 2: 1.15; 3: 0.771

For every record below, what is its phosphorylation enrichment?
1. KVKSIYFHTQG [AR_Y916_P914S]
2. TLKVGYTEKQR [EPHA3_Y659]
3. RREWFYEVIIV [BACE1_Y260_YF]

(A)
1. 0.379
2. 0.322
3. 2.28

State recorded phosphorylation enrichment for all listed sequences.
1. DGTGRYLCNAC [GATA5_Y208_H207R]
2. ATPKGYEPDAS [OTC_Y223]

(A)
0.383
0.489

(Q) Would you kindly share the measured phosphorylation enrichment for SGFESYGSSSY [RPA2_Y9] ?
(A) 0.382
